B1: C10orf62 (parent)
chain: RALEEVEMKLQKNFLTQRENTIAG

Variants of: B1
assayRemarks: protein stability index of a GFP-peptide fusion (GPS, HEK-293T) (PSI 1-6); higher = more stable;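 further: lentivirally expressed fusions sorted by FACS into six bins by GFP to DsRed ratio, PSI derived from sequencing read proportions per bin multiplied by bin number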
conditionSummary: c terminus: a fixed tail appended
Assign class by protein stability index: not lower than 4 means 1.0; lower than 4 means 0.0.

Use these answered entries as a reference point.
Problem: Determine whether this variant has protein stability index no lower than 4: "A23I"
Result: 0.0

Problem: Quick check: does "L3T" have protein stability index greater than or equal to 4?
Result: 1.0

Problem: Reported protein stability index reaches at least 4 for "M8H" ?
Result: 1.0

Problem: Please indicate if the recorded protein stability index for "A2K" meets or exceeds 4.
Result: 0.0

Problem: Is protein stability index at least 4? Consider "E4L"
Result: 0.0

Problem: Kindly determine if protein stability index recorded for "M8F" is above or exactly 4.
Result: 0.0

Problem: Test whether the variant "K12N" records protein stability index of 4 or higher.
Result: 1.0

Problem: // inclusive: protein stability index at least 4? input: "Q17T"
Result: 0.0

Problem: Is protein stability index at least 4? Consider "Q11L"
Result: 0.0

Problem: Dear colleague, could you confirm whether "K12R" has protein stability index at or above 4?
Result: 0.0

***
Problem: protein stability index >= 4 for "F14E" ?
Result: 1.0

Problem: Given "L10N" , state whether its protein stability index is at least 4.
Result: 1.0

Problem: Say whether "N13T" shows protein stability index of 4 or more.
Result: 0.0

Problem: Textbook exercise: given the entry "E19S" , state whether its protein stability index is greater than or equal to 4.
Result: 0.0

Problem: Is reported protein stability index greater than or equal to 4 here: "E5W"
Result: 0.0

Problem: Determine whether this variant has protein stability index no lower than 4: "T16F"
Result: 0.0

Problem: Given the entry "K9H" , answer whether its protein stability index meets or surpasses 4.
Result: 0.0

Problem: Hello, I need to know if "N13L" has measured protein stability index not below 4. Thanks!
Result: 0.0

Problem: Does the reported protein stability index for "I22F" fall at or above the 4 mark?
Result: 0.0

Problem: Determine whether this variant has protein stability index no lower than 4: "Q11N"
Result: 0.0
